MEASURED_ON: Cytochrome P450 2D6 (Homo sapiens)
ASSAY_TEXT: qHTS Assay for Inhibitors and Substrates of Cytochrome P450 2D6 (AID 891); further: nearly all actives have a fitted effect of over 60% in size
REPORTED_CONDITIONS: recombinant CYP2D6, luciferin-ME EGE luminescence; series mostly up to 57.1 µM
Inconclusive results are not listed. Active and inactive are the calls of the source. The call rests on the fitted dose curve; in most records, active means well fitted inhibition curve with a large enough effect; inconclusive means small, poorly fitted or top-dose-only effect; inactive means no such curve, though single readings can be large or run the other way.
Give your call using only these classes: 1 (yes) = active, 0 (no) = inactive

Some entries whose results are on file:
In [3]: df
Out[3]:
                            molecule_smiles  assigned_label
0  O=c1c(-c2ccc(Cl)cc2)nc2cnc(N3CCOCC3)nc2n1Cc1ccc(F)cc1          0 (no)
1  COc1ccccc1CNc1ncnc2ccc(-c3ccc4c(c3)OCO4)cc12         1 (yes)

Recorded test call requested for Cc1c(CC(C)(C)C(=O)O)n(Cc2ccc(Cl)cc2)c2ccc(F)cc12
0 (no)

Recorded test call requested for Cc1cnc(CNc2ncnc3ccc(-c4ccccc4CN(C)C)cc23)cn1
1 (yes)

Recorded test call requested for N#Cc1cccc(-c2nccc(NCc3ccccc3)n2)c1
1 (yes)

Recorded test call requested for O=C(C1CCCCC1)N1CC(=O)N2CCc3ccccc3[C@@H]2C1
0 (no)

###

ASSAY_TEXT: qHTS Assay for Lipid Storage Modulators (AID 1519); on activity change, negative = inhibition: on the % scale 0 is the no-effect control and ±100 the full control effect
REPORTED_CONDITIONS: Drosophila S3 cells, BODIPY lipid droplet/cell ratio, laser cytometry; at 57.5 µM (top of the series); cells loaded with oleic acid
Inconclusive results are not listed. Active and inactive are the calls of the source. The call rests on the fitted dose curve.
READOUT: activity change, negative = inhibition

                            molecule_smiles      value_observed
0  CS(=O)(=O)Nc1cccc(-c2nc(NCc3cccs3)c3ccccc3n2)c1    6.98% (inactive)
1   CN1CCN(c2ncc3ncc(=O)n(Cc4cccs4)c3n2)CC1    4.27% (inactive)
2  O=C(c1cccc(F)c1)N1CCC[C@@]2(CCN(Cc3ccccc3)C2)C1  -0.915% (inactive)
3   O=C(Oc1ccccc1)N1CCC2(CC1)CN(c1ccncc1)C2    1.74% (inactive)
4  O=C(c1csnn1)N1CCC2(CCCN(Cc3ccccc3)C2)CC1    3.37% (inactive)

Below: the item to evaluate.
# lookup: activity change, negative = inhibition of COCC(=O)N1CCC2(CC1)CCN(c1ncccn1)CC2
3.55% (inactive)

###

ASSAY_TEXT: qHTS Assay for Lipid Storage Modulators (AID 1519)
REPORTED_CONDITIONS: Drosophila S3 cells, BODIPY lipid droplet/cell ratio, laser cytometry; measured here: lipid channel max response; cells loaded with oleic acid
Results filed as inconclusive are left out.
Measured max response accompanies every entry in the list below.
State the answer as a number, implicitly in %.

Below, each entry is followed by its recorded max response result.
>>> print(df.to_string())
                                   compound       readout  value_observed
0  O=C(c1cc(C(F)(F)F)cc(C(F)(F)F)c1)N1CCC[C@@]2(CCN(c3ccncc3)C2)C1  max response           -5.86
1         CC(=O)N1CCC2(CC1)CCN(c1ncccn1)CC2  max response            17.2
2  COc1ccc(NC(=O)N2CC[C@@]3(CCCN(C(=O)c4ccncc4)C3)C2)cc1  max response             7.4
3  O=C(c1ccncc1)N1CCC2(CCCN(Cc3nccs3)C2)CC1  max response            11.6
4  O=C(c1ccncc1)N1CCC2(CCCN(c3ccncc3)C2)CC1  max response           -8.67
5      CN(C)c1ccc(-c2cc(NCc3cccnc3)ncn2)cc1  max response            22.6
6  CN1CCCC[C@@H]1CCN1c2ccccc2Sc2ccc(S(C)=O)cc21 (some centres undefined)  max response           -7.46
7  CCN1CCC[C@@H]1CNC(=O)c1cc(S(N)(=O)=O)ccc1OC  max response           -11.7

# lookup: max response of COc1ccc(C(=O)N2CCC3(CCCN(Cc4ccccc4OC)C3)CC2)cc1
-6.45

# lookup: max response of CC(C)NC(=O)N1CC[C@@]2(CCCN(S(=O)(=O)c3ccccc3)C2)C1
-4.67

# lookup: max response of CN(C)Cc1ccccc1-c1ccc2ncnc(N(C)Cc3ccco3)c2c1
12.6

# lookup: max response of COc1cccc(Cn2c(=O)c(-c3ccc(F)cc3)nc3cnc(N4CCNCC4)nc32)c1
0.893

###

ASSAY_TEXT: NFAT Signaling Pathway (AID 444);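 further: carbachol stimulus at about its EC50 of 1 µM final; on the % scale 0 is the no-effect control and ±100 the full control effect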
REPORTED_CONDITIONS: Jurkat NFAT-bla M1, carbachol, beta-lactamase ratio, 5 h; at 7.69 µM (top of the series) unless noted
Description: NCGC Assay Overview: The nuclear factor of activated T cells (NFAT) family of transcription factors has been found primarily in most immune system cells and some other non-immune cells. NFAT plays the immunomodulatory role, primarily in T-cell activation and differentiation. […] NCGC Assay Protocol Summary: The cells were prepared in RPMI 1640 medium containing 0.1% dialyzed FBS and 25 mM HEPES at 1.6 x 10^6cell/ml. […] The %Activity was determined from the ratio of 460nm/530nm. […]
Inconclusive results are not listed.
READOUT: activity change, negative = inhibition (%)
State the answer as a number, implicitly in %.

>>> print(df.to_string())
                            molecule_smiles                                 readout  value_observed
0  COc1ccc(-n2c(=O)c(CCc3ccccc3)nc3cnc(N(C)C)nc32)cc1  activity change, negative = inhibition           -2.06
1  O=C(c1ccncc1)N1CCC[C@@]2(CCN(Cc3ccncc3)C2)C1  activity change, negative = inhibition            3.82
2  CC(=O)NCCNc1nc(-c2cccc(NS(C)(=O)=O)c2)nc2ccccc12  activity change, negative = inhibition           -1.12
3  COc1ccc(-c2nc3cnc(OC)nc3n(C3CC3)c2=O)cc1  activity change, negative = inhibition          -0.173
4  O=C(c1cnccn1)N1CCC2(CCN(Cc3ccncc3)CC2)CC1  activity change, negative = inhibition           -19.7

# lookup: activity change, negative = inhibition of CN(C)Cc1ccccc1-c1ccc2ncnc(NCc3cccs3)c2c1
-20.1

# lookup: activity change, negative = inhibition of COc1cccc(Nc2ncc3nc(C)c(=O)n(-c4ccccc4)c3n2)c1
11.1

###

ASSAY_TEXT: AP1 Signaling Pathway (AID 357);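 further: ME-180 reporter cells stimulated with EGF at its EC50 level; on the % scale 0 is the no-effect control and ±100 the full control effect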
REPORTED_CONDITIONS: ME-180 (cervical carcinoma) AP-1-bla reporter, EGF-induced, beta-lactamase ratio, 5 h; at 7.69 µM (top of the series) unless noted
Results filed as inconclusive are left out. The source made the active and inactive calls. Calls follow the shape of the dose curve; as a rule, active = well fitted curve in either direction with a large enough effect (not every such curve was filed as active); inconclusive = small, poorly fitted or top-dose-only effect, or another doubt; inactive = flat fitted curve, though single readings scatter.
READOUT: activity change, negative = inhibition

                        molecule_smiles     value_observed
0  c1ccc(CNc2nc(-c3ccoc3)nc3ccccc23)cc1  -9.34% (inactive)

# lookup: activity change, negative = inhibition of COc1ccc(NC(=O)N2CC[C@@]3(CCCN(S(C)(=O)=O)C3)C2)cc1
-12.7% (inactive)

# lookup: activity change, negative = inhibition of Cc1cccc(CNc2nc(-c3ccccc3CN(C)C)nc3ccccc23)c1
20.6% (inactive)

# lookup: activity change, negative = inhibition of COc1ccc(-n2c(=O)c(CCc3ccccc3)nc3cncnc32)cc1
-15.2% (inactive)

###

MEASURED_ON: Cytochrome P450 1A2 (Homo sapiens) (UniProt P05177)
Sequence (P05177 whole entry, looked up): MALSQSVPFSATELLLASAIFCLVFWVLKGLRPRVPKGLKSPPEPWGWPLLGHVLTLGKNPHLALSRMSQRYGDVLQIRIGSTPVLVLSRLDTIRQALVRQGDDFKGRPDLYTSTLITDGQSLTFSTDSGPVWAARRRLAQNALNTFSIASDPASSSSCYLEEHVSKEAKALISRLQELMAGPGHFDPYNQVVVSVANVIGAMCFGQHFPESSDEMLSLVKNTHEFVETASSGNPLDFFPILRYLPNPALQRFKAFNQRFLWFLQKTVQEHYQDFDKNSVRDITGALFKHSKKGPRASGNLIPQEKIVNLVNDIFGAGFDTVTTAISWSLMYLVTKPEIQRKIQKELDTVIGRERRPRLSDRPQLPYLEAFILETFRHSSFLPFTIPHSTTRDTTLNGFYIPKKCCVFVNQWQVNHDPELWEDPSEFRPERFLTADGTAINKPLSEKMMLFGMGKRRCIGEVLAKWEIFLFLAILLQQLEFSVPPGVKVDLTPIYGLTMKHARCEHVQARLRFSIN
ASSAY_TEXT: p450-cyp1a2 (AID 410); further: potency means the concentration at half of the fitted maximal effect
REPORTED_CONDITIONS: recombinant CYP1A2, luciferin-ME demethylation, luminescence; series mostly up to 57 µM
Procedure: The P450 gene superfamily is involved in metabolism and the clearance of xenobiotics. This assay used human CYP1A2 to measure the demethylation of luciferin 6' methyl ether (Luciferin-ME; Promega-Glo) to luciferin. The luciferin is then measured by luminescence after the addition of a luciferase detection regeant. Luciferin-ME concentration in the assay was equal to its Km for CYP1A2. NCGC Assay Protocol Summary: […]
Records with an inconclusive call do not appear. Activity calls are given as the source filed them. Calls come from the whole dose curve.
READOUT: Potency

>>> print(df.to_string())
                            molecule_smiles     value_observed
0  COCCn1c(=O)c(-c2cc(F)cc(F)c2)nc2cnc(N(C)C)nc21   5.01 µM (active)
1      Cc1nc2cnc(N(C)C)nc2n(CCc2ccccc2)c1=O   1.26 µM (active)
2           Cc1noc(C)c1-c1cncnc1N1CCN(C)CC1           inactive
3  CC1(C)S[C@@H]2[C@H](NC(=O)[C@H](C(=O)O)c3ccsc3)C(=O)N2[C@H]1C(=O)O           inactive
4  COc1ccc(Oc2ncc3nc(-c4cccs4)c(=O)n(-c4ccccc4)c3n2)cc1   3.16 µM (active)
5               COc1ncc2ncc(=O)n(C3CC3)c2n1     10 µM (active)
6    CCNc1ncc2nc(C)c(=O)n(C[C@H]3CCCO3)c2n1   3.98 µM (active)
7  COC(=O)N1CCC2(CCCN(C(=O)Nc3ccccc3)C2)CC1           inactive
8  CN1CCN(c2ncc3nc(-c4cccc(C#N)c4)c(=O)n(C[C@H]4CCCO4)c3n2)CC1   15.8 µM (active)
9      COCCn1c(=O)c(-c2ccc(F)cc2)nc2cncnc21  0.501 µM (active)

Reported Potency for Cytochrome P450 1A2 (Homo sapiens) (UniProt P05177), given N#Cc1cccc(-c2nc3cnc(N4CCNCC4)nc3n(C3CC3)c2=O)c1 ?
5.01 µM (active)

Reported Potency for Cytochrome P450 1A2 (Homo sapiens) (UniProt P05177), given COc1ccc2[nH]cc(CCNc3ccnc(-c4ccc5c(c4)OCO5)n3)c2c1 ?
0.631 µM (active)

Reported Potency for Cytochrome P450 1A2 (Homo sapiens) (UniProt P05177), given O=C(c1cnccn1)N1CCC[C@@]2(CCN(Cc3ccncc3)C2)C1 ?
15.8 µM (active)

Reported Potency for Cytochrome P450 1A2 (Homo sapiens) (UniProt P05177), given Cn1cccc1C(=O)N1CCC[C@@]2(CCN(Cc3nccs3)C2)C1 ?
inactive

Reported Potency for Cytochrome P450 1A2 (Homo sapiens) (UniProt P05177), given O=C(c1cnccn1)N1CCC2(CC1)CN(Cc1nccs1)C2 ?
inactive

Reported Potency for Cytochrome P450 1A2 (Homo sapiens) (UniProt P05177), given COc1cccc(-c2nc(N(C)Cc3ccco3)c3ccccc3n2)c1 ?
0.316 µM (active)

Reported Potency for Cytochrome P450 1A2 (Homo sapiens) (UniProt P05177), given O=c1c(-c2ccc(F)cc2)nc2cnc(Nc3ccccc3)nc2n1Cc1cccs1 ?
2 µM (active)

Reported Potency for Cytochrome P450 1A2 (Homo sapiens) (UniProt P05177), given O=c1c(-c2cccs2)nc2cnc(N3CCNCC3)nc2n1Cc1cccs1 ?
3.98 µM (active)

Reported Potency for Cytochrome P450 1A2 (Homo sapiens) (UniProt P05177), given O=C(c1cc(C(F)(F)F)cc(C(F)(F)F)c1)N1CCC2(CCN(Cc3ccccc3)CC2)CC1 ?
inactive

Reported Potency for Cytochrome P450 1A2 (Homo sapiens) (UniProt P05177), given CN(N=O)C(=O)N[C@H]1[C@@H](O)[C@H](O)[C@H](CO)O[C@@H]1O ?
inactive

Reported Potency for Cytochrome P450 1A2 (Homo sapiens) (UniProt P05177), given N#Cc1cccc(-c2cc(NCc3cccnc3)ncn2)c1 ?
0.0398 µM (active)

Reported Potency for Cytochrome P450 1A2 (Homo sapiens) (UniProt P05177), given N#Cc1cccc(NC(=O)N2CCCC3(CCN(C(=O)c4cc(C(F)(F)F)cc(C(F)(F)F)c4)CC3)C2)c1 ?
6.31 µM (active)
